measured target: human Claudin-6 (CLDN6) (human) (UniProt P56747)
test name: FACS titration of labelled mAb on HEK293T-CLDN6-mGFP cells
quantity measured: pEC50
Formally, pEC50 is defined as -log10 of the concentration c, with c in mol/L.

Below: 5 binders and their reported pEC50.
AB19 (antibody, V domains shown) VH: EVQLQQSGPELVKPGGSMKISCKASGYSFTGYTMNWVKRSHGKNLEWIGLINPYNGVTTYNQNFKGKATLAVDKSSSTAYMELLGLTSEDSAVYYCTRDPLYYGYRDSTMDYWGQGTSVTVSS VL: NIMMTQSPSSLAVSAGEKVTMSCKSSQSVLFSSNQKNYLAWYQQKPGQSPRLLIYWASTRESGVPDRFTGSGSGTDFTLTISNVQAEDLAVYYCHQYLSSRTFGAGTKLELK    5.30
AB13 (antibody, V domains shown) VH: QVQLQQSGAELVRPGTSVKVSCKASGYAFSNYLIEWVKQRPGQGLEWIGVINPGSGGTNYNEKFKGKATMTADKSSSTAYMHLSNLTSEDSVVYFCARSYFGRSYPYTMDYWGQGTSVTVSS VL: EIVLTQSPTTMAASPGEKITITCSASSSISSNYLHWYQQKPGFSPKLLIYRTSNLASGVPARFSGSGSGTSYSLTIGTMEAEDVATYYCQQGSSIPLTFGAGTKLELK    5.30
AB1-6 (antibody, V domains shown, humanized) VH: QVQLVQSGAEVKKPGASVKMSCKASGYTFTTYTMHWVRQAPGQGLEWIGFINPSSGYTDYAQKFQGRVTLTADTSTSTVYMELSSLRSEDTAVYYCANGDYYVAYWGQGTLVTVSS VL: DIQMTQSPSSLSASVGDRVTITCTASSSVSSTYFHWYQQKPGKAPKLLIYSTSNLASGVPSRFSGSGSGTDYTLTISSLQPEDFATYYCHQYHRSPLTFGQGTKLEIK    5.30
AB7 (antibody, V domains shown, full-length IgG (ExpiCHO)) VH: EVQLQQSGPELVKPGASMKISCKASGYSFTGYTMNWVKQSHGKNLEWIGLINPYNGGTNYNQKFKGKATLTVDKSSSTAYMELLSLTSEDSAVYYCARGVYDYDGFTYWGQGTLVTVSA VL: QIVLTQSPAIMSASLGDRVTMTCTASSSVSSSYLHWYQQKPGSSPKLWIYSTSNLASGVPARFSGSGSGTSYSLTISSMEAEDAATYYCHQYHRSPPTFGSGTKLEIK    6.24
AB5 (antibody, V domains shown, full-length IgG (ExpiCHO)) VH: EVQLQQSGPELVKPGASVKMSCKASGYIFTHYIMHWVKQKPGQGLEWIGCINPYNDGTKYNEKFKGKATLTSDKSSSTAYMELSSLTSEDSAVYYCARYYGYPYYSMDYWGQGTSVTVSS VL: DVLMTQTPLSLPVSLGDQPSISCRSSQSIVHSNGNTYLDWYLQKPGQSPKLLIYKVSNRFSGVPDRFSGSGSGTDFTLKISRVEAEDLGVYYCFQGSHVPFTFGSGTRLEIK    8.00

IN: Quick one: pEC50 for AB15 (antibody, V domains shown, full-length IgG (ExpiCHO)) VH: DVQLVESGGGLVQPRGSRKLSCAASGFTFSSFGMHWVRQAPEKGLEWVAYISSDSRTIYYADTVKGRFTISRDNPTNTLFLQMTSLRSEDTAMYYCARDYGRTYEAYWGQGTLVTVSA VL: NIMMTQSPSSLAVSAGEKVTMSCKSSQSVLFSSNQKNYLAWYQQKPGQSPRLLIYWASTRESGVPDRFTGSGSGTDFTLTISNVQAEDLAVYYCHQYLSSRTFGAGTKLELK ?
OUT: 5.30
